activity change overview
assay: P. falciparum Dd2 growth inhibitors, primary screen, SYBR Green fluorescence, single dose replicates (AID 1159554); details: 72 h, at 10 µM, active compounds read low
About 2,100 (2.2%) of roughly 94,000 compounds were called active. What follows is part of a selection rich in actives, with near analogues and random picks from the rest.

- CHEMICAL_SMILES: "Cc1ccc(S(=O)(=O)Nc2ccc3c(c2)C(=O)N([C@H](C)CO)C[C@H](C)[C@@H](CN(C)C(=O)Nc2ccc4c(c2)OCO4)OCCCC[C@@H](C)O3)cc1"
  activity change, %: -34.5
- CHEMICAL_SMILES: "COc1cccc(-c2ccc3n(c2=O)C[C@H]2[C@H](CO)[C@@H](C(=O)NC4CCCC4)[C@@H]3N2C)c1"
  activity change, %: 2.57
- CHEMICAL_SMILES: "COCC(=O)Nc1ccc2c(c1)C(=O)N(C)C[C@@H](OC)[C@@H](C)CN(C(=O)Cc1ccccn1)[C@@H](C)CO2"
  activity change, %: -33.6
- CHEMICAL_SMILES: "Cc1ccc(S(=O)(=O)Nc2ccc3c(c2)C(=O)N([C@H](C)CO)C[C@H](C)[C@H](CN(C)C(=O)Nc2ccc4c(c2)OCO4)OCCCC[C@@H](C)O3)cc1"
  activity change, %: 4.19
